tested.system: farnesyl protein transferase (Homo sapiens, UniProt P49354+P49356)
assay.method.text: FPT IC50 (inhibition of farnesyl protein transferase, in vitro enzyme assay)
Each entry belongs to exactly one class, chosen by where its IC50 falls: bucket 1: < 5 nM; bucket 2: ≥ 5 nM and < 8 nM; bucket 3: ≥ 8 nM

Exam item: Hi there! Could you help me figure out the category for O=C(CC1CCCO1)N1CCC(C2c3ncc(Br)cc3CCc3cc(Cl)cc(Br)c32)CC1 (centres unmarked) please?
Marked response: bucket 3

Exam item: Hi there! Could you help me figure out the category for O=C(CC1COCCO1)N1CCC(C2c3ncc(Br)cc3CCc3cc(Cl)cc(Br)c32)CC1 (centres unmarked) please?
Marked response: bucket 3

Exam item: Hi there! Could you help me figure out the category for O=C(CN1CC[S+]([O-])CC1)N1CCN(C2c3ccc(Cl)c(Br)c3CCc3cc(Br)cnc32)CC1 (centres unmarked) please?
Marked response: bucket 1

Exam item: Hi there! Could you help me figure out the category for O=C(C1CC2CCC1CO2)N1CCC(C2c3ncc(Br)cc3CCc3cc(Cl)cc(Br)c32)CC1 (single isomer, unassigned) [Example 30] please?
Marked response: bucket 2

Exam item: Hi there! Could you help me figure out the category for `O=C(CN1CCOCC1)N1CCC([C@H]2c3ncc(Br)cc3CCc3cc(Cl)cc(Br)c32)CC1` please?
Marked response: bucket 1

Exam item: Hi there! Could you help me figure out the category for `O=C(CC1CCOCC1)N1CCC([C@@H]2c3c(Br)cc(Cl)cc3CCc3cc(Br)c[n+]([O-])c32)CC1` please?
Marked response: bucket 1

Exam item: Hi there! Could you help me figure out the category for O=C(CC1CCCCO1)N1CCC(C2c3ncc(Br)cc3CCc3cc(Cl)cc(Br)c32)CC1 (centres unmarked) please?
Marked response: bucket 1

Exam item: Hi there! Could you help me figure out the category for `O=C(CC1CCOCC1)N1CCN([C@@H]2c3ccc(Cl)cc3CCc3cc(Br)cnc32)CC1` please?
Marked response: bucket 3

Exam item: Hi there! Could you help me figure out the category for O=C(C1CC2CCC1CO2)N1CCC(C2c3ncc(Br)cc3CCc3cc(Cl)cc(Br)c32)CC1 (single isomer, unassigned) [Example 29] please?
Marked response: bucket 2

Exam item: Hi there! Could you help me figure out the category for O=C(CC1=CCOCC1)N1CCC(C2c3ncc(Br)cc3CCc3cc(Cl)cc(Br)c32)CC1 (centres unmarked) please?
Marked response: bucket 2

----------
Kindly state melting point for each of the entries shown.

Exam item: Which melting point reading was recorded for the compound `O=C(CC1CCOCC1)N1CCC([C@@H]2c3c(Br)cc(Cl)cc3CCc3cc(Br)c[n+]([O-])c32)CC1` ?
Marked response: 141 to 151 °C (dec.)

Exam item: Which melting point reading was recorded for the compound O=C(C1CC2CCC1CO2)N1CCC(C2c3ncc(Br)cc3CCc3cc(Cl)cc(Br)c32)CC1 (single isomer, unassigned) [Example 30] ?
Marked response: 151 to 159 °C (dec.)

Exam item: Which melting point reading was recorded for the compound `O=C(CC1CCOCC1)N1CCC([C@H]2c3ncc(Br)cc3CCc3cc(Cl)cc(Br)c32)CC1` ?
Marked response: 83.2 to 88.7 °C

Exam item: Which melting point reading was recorded for the compound O=C(C1CC2CCC1CO2)N1CCC(C2c3ncc(Br)cc3CCc3cc(Cl)cc(Br)c32)CC1 (single isomer, unassigned) [Example 29] ?
Marked response: 152 to 164 °C (dec.)
